Record: IC50 reported on Tyrosine-protein phosphatase non-receptor type 2 (Homo sapiens).
Sequence (P17706 whole entry): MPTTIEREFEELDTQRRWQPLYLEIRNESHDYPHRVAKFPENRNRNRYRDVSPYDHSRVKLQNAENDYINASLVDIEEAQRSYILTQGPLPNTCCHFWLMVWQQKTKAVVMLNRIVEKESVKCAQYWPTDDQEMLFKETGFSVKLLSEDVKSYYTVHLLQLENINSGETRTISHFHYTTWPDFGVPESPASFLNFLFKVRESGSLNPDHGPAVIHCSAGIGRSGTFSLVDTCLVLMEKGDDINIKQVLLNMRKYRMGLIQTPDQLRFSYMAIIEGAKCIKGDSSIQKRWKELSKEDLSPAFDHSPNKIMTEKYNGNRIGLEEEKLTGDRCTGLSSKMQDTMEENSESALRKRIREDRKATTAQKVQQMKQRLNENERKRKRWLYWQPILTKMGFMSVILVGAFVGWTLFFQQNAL
Reported Endpoint: IC50 (nM)

>>> assay_value("O=C(c1ccccc1)C(Cc1ccc2cc(Br)c(C(F)(F)P(=O)(O)O)cc2n1)(Cc1ccc2cc(Br)c(C(F)(F)P(=O)(O)O)cc2n1)n1nnc2ccccc21")
101
>>> assay_value("N[S+]([O-])C(F)(F)c1cc2nc(CC(Cc3ccc4cc(Br)c(C(F)(F)P(=O)(O)O)cc4c3)(C(=O)c3ccccc3)n3nnc4ccccc43)ccc2cc1Br (stereo not drawn)")
185
>>> assay_value("N[S+]([O-])C(F)(F)c1ccc(CC(Cc2ccc3cc(Br)c(C(F)(F)P(=O)(O)O)cc3c2)(C(=O)c2ccccc2)n2nnc3ccccc32)cc1Br (stereo not drawn)")
192
>>> assay_value("N[S+]([O-])C(F)(F)c1cc2cc(CC(Cc3ccc4cc(Br)c(C(F)(F)P(=O)(O)O)cc4c3)(C(=O)c3ccccc3)n3nnc4ccccc43)ccc2cc1Br (stereo not drawn)")
480
>>> assay_value("O=C(c1ccccc1)C(Cc1ccc(C(F)(F)P(=O)(O)O)c(Br)c1)(Cc1ccc2cc(Br)c(C(F)(F)P(=O)(O)O)cc2c1)n1nnc2ccccc21 (stereo not drawn)")
201
>>> assay_value("O=C(c1ccccc1)C(Cc1ccc2cc(Br)c(C(F)(F)P(=O)(O)O)cc2c1)(Cc1ccc2cc(Br)c(C(F)(F)P(=O)(O)O)cc2c1)n1nnc2ccccc21")
580
>>> assay_value("N[S+]([O-])C(F)(F)c1cc2nc(CC(Cc3ccc4cc(Br)c(C(F)(F)P(=O)(O)O)cc4n3)(C(=O)c3ccccc3)n3nnc4ccccc43)ccc2cc1Br (stereo not drawn)")
82
>>> assay_value("O=C(c1ccccc1)C(Cc1ccc2cc(Br)c(C(F)(F)P(=O)(O)O)cc2c1)(Cc1ccc2cc(Br)c(C(F)(F)P(=O)(O)O)cc2n1)n1nnc2ccccc21 (stereo not drawn)")
90

---

Molecular target: Tyrosine-protein phosphatase non-receptor type 1 (Homo sapiens, UniProt P18031)
Sequence (P18031 whole entry): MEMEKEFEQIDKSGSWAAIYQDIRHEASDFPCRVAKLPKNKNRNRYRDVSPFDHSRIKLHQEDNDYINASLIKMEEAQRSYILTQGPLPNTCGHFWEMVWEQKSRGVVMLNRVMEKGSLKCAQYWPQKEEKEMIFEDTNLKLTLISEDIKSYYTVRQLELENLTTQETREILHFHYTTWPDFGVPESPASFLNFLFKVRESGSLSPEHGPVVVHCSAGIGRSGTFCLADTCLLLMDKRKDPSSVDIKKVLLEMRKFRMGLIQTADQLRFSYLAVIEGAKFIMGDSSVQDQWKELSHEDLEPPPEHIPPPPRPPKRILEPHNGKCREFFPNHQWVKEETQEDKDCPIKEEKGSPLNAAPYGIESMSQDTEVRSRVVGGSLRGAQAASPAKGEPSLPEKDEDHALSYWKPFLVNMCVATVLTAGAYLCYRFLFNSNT
pIC50: −log10 of the molar value.
Reported Endpoint: pIC50

>>> assay_value("N[S+]([O-])C(F)(F)c1ccc(CC(Cc2ccc3cc(Br)c(C(F)(F)P(=O)(O)O)cc3c2)(C(=O)c2ccccc2)n2nnc3ccccc32)cc1Br (centres undefined)")
7.72
>>> assay_value("O=C(c1ccccc1)C(Cc1ccc2cc(Br)c(C(F)(F)P(=O)(O)O)cc2c1)(Cc1ccc2cc(Br)c(C(F)(F)P(=O)(O)O)cc2n1)n1nnc2ccccc21 (centres undefined)")
8.52
>>> assay_value("O=C(c1ccccc1)C(Cc1ccc2cc(Br)c(C(F)(F)P(=O)(O)O)cc2c1)(Cc1ccc2cc(Br)c(C(F)(F)P(=O)(O)O)cc2c1)n1nnc2ccccc21")
8.30
>>> assay_value("N[S+]([O-])C(F)(F)c1cc2nc(CC(Cc3ccc4cc(Br)c(C(F)(F)P(=O)(O)O)cc4c3)(C(=O)c3ccccc3)n3nnc4ccccc43)ccc2cc1Br (centres undefined)")
8.22
